- measurementTarget: 15-PGDH (Homo sapiens, UniProt P15428)
- Construct: 15-PGDH is highly expressed in resting human lung adenocarcinoma cells (A549); endogenous in cells; host or cells: A549
- Sequence (P15428 1-266): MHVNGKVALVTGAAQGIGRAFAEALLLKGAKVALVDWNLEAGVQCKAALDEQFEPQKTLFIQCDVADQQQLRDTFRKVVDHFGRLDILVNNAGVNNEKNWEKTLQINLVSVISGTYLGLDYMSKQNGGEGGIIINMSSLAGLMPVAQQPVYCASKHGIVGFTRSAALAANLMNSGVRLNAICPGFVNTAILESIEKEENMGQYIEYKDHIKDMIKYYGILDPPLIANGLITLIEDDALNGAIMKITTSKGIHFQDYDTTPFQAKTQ
- testSummary: A549 cell based assay: PGE2 in supernatant after IL-1β (HTRF)
- condition: A549 cells; fold induction of PGE2, IL-1β plus test article versus IL-1β only; 0.001 μM
PGE2 - HTRF over IL-β induction at 0.001 μM values for the compounds below.
measurementKind: PGE2 - HTRF over IL-β induction at 0.001 μM

[
  {
    "compound": "O=C(c1cnc2c(ccn2-c2ccc(N3CCOC3=O)nc2)c1)N1CCC[C@@H](C(F)(F)F)C1 [Compound B-81]",
    "result": 0.51
  },
  {
    "compound": "COC(=O)Nc1cncc(-n2ccc3cc(C(=O)N4CCCC(C(F)(F)F)C4)cnc32)c1 (centres unmarked) [Compound B-84]",
    "result": 1.94
  },
  {
    "compound": "CCC1CCCN(C(=O)c2cnc3c(ccn3-c3cncc(NC(=O)OC)c3)c2)C1 (centres unmarked) [Compound B-83]",
    "result": 1.4
  },
  {
    "compound": "CN(C)c1nc2ccc(-n3ccc4cc(C(=O)N5CCC(F)(F)CC5)cnc43)cn2n1 [Compound B-102]",
    "result": 0.95
  },
  {
    "compound": "O=C(c1cnc2c(ccn2-c2ccc3nc(N4CCOCC4)nn3c2)c1)N1CCC(F)(F)CC1 [Compound B-97]",
    "result": 1.08
  },
  {
    "compound": "O=C(c1cnc2c(ccn2-c2cccc(-c3nc[nH]n3)c2)c1)N1CCC(F)(F)CC1 [Compound B-36]",
    "result": 2.93
  },
  {
    "compound": "CC(C)OC(=O)Nc1cncc(-n2ccc3cc(C(=O)N4CCC(F)(F)CC4)cnc32)c1 [Compound B-88]",
    "result": 2.14
  },
  {
    "compound": "C[C@H]1CCCN(C(=O)c2cnc3c(ccn3-c3cnn(CC(F)(F)F)c3)c2)C1 [Compound B-100]",
    "result": 0.79
  }
]
